# pIC50 per record follows
# targetEntity: SHP2 (Homo sapiens, UniProt Q06124)
# Sequence (Q06124 whole entry): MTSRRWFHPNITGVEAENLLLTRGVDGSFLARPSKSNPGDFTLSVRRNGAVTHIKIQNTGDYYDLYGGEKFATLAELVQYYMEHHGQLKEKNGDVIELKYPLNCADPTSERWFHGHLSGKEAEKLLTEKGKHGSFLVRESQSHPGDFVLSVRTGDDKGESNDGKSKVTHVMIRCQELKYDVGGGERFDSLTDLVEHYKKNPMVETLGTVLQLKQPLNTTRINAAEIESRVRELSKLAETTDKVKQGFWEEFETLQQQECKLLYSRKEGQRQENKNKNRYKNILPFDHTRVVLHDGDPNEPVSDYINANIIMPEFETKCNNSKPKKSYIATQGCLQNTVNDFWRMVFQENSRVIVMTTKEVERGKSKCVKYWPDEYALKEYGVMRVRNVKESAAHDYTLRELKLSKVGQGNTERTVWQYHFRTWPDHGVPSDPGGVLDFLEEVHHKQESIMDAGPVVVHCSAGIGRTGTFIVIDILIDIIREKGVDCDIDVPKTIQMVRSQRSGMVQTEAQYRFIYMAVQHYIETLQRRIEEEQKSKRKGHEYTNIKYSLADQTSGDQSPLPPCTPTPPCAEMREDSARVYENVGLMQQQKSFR
# method: SHP2 allosteric inhibition assay (DiFMUP prompt fluorescence)
# Type: biochemical
# conditionSummary: Table 3; 0.25 nM SHP2, 0.5 μM IRS1_pY1172(dPEG8)pY1222 peptide, DiFMUP 100 μM
pIC50: −log10 of the molar value.

IN: Which pIC50 is listed for COc1ccc(-c2nc(CSc3nncn3-c3ccccc3)cs2)cc1OC ?
OUT: < 3.00

IN: Item Cc1nc(-c2ccc(C(F)(F)F)cc2)sc1C(=O)N1CC[C@@H](N)C1 has what recorded pIC50?
OUT: < 3.00

IN: Fill in the blank: the reported pIC50 of Cc1ccc(-c2nc(C)c(C(=O)N3CCC(CN)C3)s2)c(C)c1 (stereo not shown) is ____.
OUT: < 3.00

IN: Please give the measured pIC50 for this compound: COc1ccccc1-c1nc(C(=O)N2CCCC(C(C)N)C2)cs1 (stereo not shown)
OUT: < 3.00

IN: Fill in the blank: the reported pIC50 of O=C(O)Cc1csc(-c2cccc(Cl)c2Cl)n1 is ____.
OUT: < 3.00

* * *

The following compounds are shown together with reported IC50 values.
# targetEntity: SHP2 (Homo sapiens)
# method: SHP2 allosteric inhibition assay (DiFMUP prompt fluorescence)
# Type: biochemical
# conditionSummary: Table 3; 0.25 nM SHP2, 0.5 μM IRS1_pY1172(dPEG8)pY1222 peptide, DiFMUP 100 μM

O=C(Nc1cc(C(F)(F)F)cc(C(F)(F)F)c1)c1csc(-c2cccc(Cl)c2Cl)n1	500 to 1000 µM

IN: Dear colleague, I am looking for the recorded IC50 of the following compound: COc1cc(-c2nc(CSc3nncn3C)cs2)ccc1O
OUT: < 500 µM

IN: If you can, please state the reported IC50 value of NCC1CCN(C(=O)c2csc(-c3ccccc3F)n2)C1 (centres unmarked) .
OUT: > 1000 µM

IN: Value lookup for IC50; key = COc1ccc(-c2nc(CSc3nncs3)cs2)cc1
OUT: > 1000 µM

IN: Requested field: IC50. Item: CNCC1CCN(C(=O)Cc2csc(-c3ccc(Cl)cc3Cl)n2)C1 (centres unmarked)
OUT: > 1000 µM

IN: IC50 for COc1ccc(-c2nc(CSc3nnc(NCC4CCCO4)s3)cs2)cc1OC (centres unmarked) ?
OUT: 500 to 1000 µM

* * *

Listing of recorded pIC50 by entry.
# targetEntity: SHP2 (Homo sapiens, UniProt Q06124)
# method: SHP2 allosteric inhibition assay (DiFMUP prompt fluorescence)
# Type: biochemical
# conditionSummary: Table 3; 0.25 nM SHP2, 0.5 μM IRS1_pY1172(dPEG8)pY1222 peptide, DiFMUP 100 μM
pIC50: −log10 of the molar value.

Here is how some compounds turned out for pIC50.
COc1cc(-c2nc(CSc3nnc(-c4ccccc4C)n3C)cs2)ccc1O	3.00 to 3.30
O=C(O)c1csc(-c2ncccc2Cl)n1	< 3.00
COc1cc(-c2nc(CN(C)Cc3ccco3)cs2)ccc1O	< 3.00
O=C(O)c1csc(-c2cccc3ccccc23)n1	> 3.30
COCCn1cnnc1SCc1csc(-c2ccc(OC)c(OC)c2)n1	> 3.30

IN: Could you share which pIC50 value was measured for CCOc1ccc(-c2nc(CSc3nnc(C)s3)cs2)cc1OC ?
OUT: < 3.00

IN: Return reported pIC50; argument: c1ccc(-c2nc(CSc3nncs3)cs2)cc1
OUT: < 3.00

IN: Would you mind telling me what pIC50 value was observed for NC1CCCN(C(=O)c2cnc(-c3ccc(C(F)(F)F)cc3)s2)CC1 (centres unmarked) ?
OUT: < 3.00

* * *

The following molecules are shown together with reported IC50 values.
# targetEntity: SHP2 (Homo sapiens, UniProt Q06124)
# method: SHP2 allosteric inhibition assay (DiFMUP prompt fluorescence)
# Type: biochemical
# conditionSummary: Table 3; 0.25 nM SHP2, 0.5 μM IRS1_pY1172(dPEG8)pY1222 peptide, DiFMUP 100 μM
Structures can show the parent of a compound that is named as a salt.

CCOc1ccc(-c2nc(CSc3nncs3)cs2)cc1OC [Compound C23]	> 1000 µM
COc1ccc(-c2nc(CSc3nnnn3C3CC3)cs2)cc1OC [Compound C25]	> 1000 µM
COc1ccc(-c2nc(CSc3nnc(N(C(C)=O)C4CC4)s3)cs2)cc1OC [Compound C38]	> 1000 µM
COc1ccc(-c2nc(CSc3cccc[n+]3[O-])cs2)cc1OC [Compound C16]	< 500 µM
c1coc(-c2nc(CSc3nncs3)cs2)c1 [Compound C8]	500 to 1000 µM
COc1cc(-c2nc(CN3CCOCC3C)cs2)ccc1O (stereo not drawn) [Compound C22]	> 1000 µM
COc1cc(-c2nc(CSc3nnc(-c4ccc(C)cc4C)o3)cs2)ccc1O [Compound C34]	> 1000 µM
O=C(O)c1csc(-c2ccc(Cl)cc2Cl)n1 [Compound C5]	500 to 1000 µM

IN: GET /values?readout=IC50&item= CC1(N)CCN(C(=O)c2csc(-c3ccccc3Cl)n2)CC1 [Compound C1, formate]
OUT: < 500 µM

IN: So what does the record say about IC50 for Cn1cnnc1SCc1csc(-c2ccc3c(c2)OCO3)n1 [Compound C26] ?
OUT: > 1000 µM

IN: Which measured IC50 value corresponds to COc1ccc(-c2nc(CSc3nnnn3C)cs2)cc1OC [Compound C6] ?
OUT: 500 to 1000 µM

IN: Dear colleague, I am looking for the recorded IC50 of the following molecule: CCC(=O)N(c1nnc(SCc2csc(-c3ccc(OC)c(OC)c3)n2)s1)C1CC1 [Compound C31]
OUT: > 1000 µM

IN: Item O=C(O)c1csc(-c2ccccc2Cl)n1 [Compound C42] has what recorded IC50?
OUT: > 1000 µM

IN: Report IC50 for COc1ccc(-c2nc(CSc3nnc(-c4ccco4)o3)cs2)cc1OC [Compound C30] please.
OUT: > 1000 µM

IN: I would be grateful if you could share the reported IC50 for COc1ccc(-c2nc(CSc3nnc(C4CC4)n3N)cs2)cc1OC [Compound C10] .
OUT: 500 to 1000 µM

Hello, the source for this data is patent US20200392161A1, in case you need it.
